testedTarget: dopamine D-1 receptor (Rattus norvegicus)
Sequence (P18901 whole entry): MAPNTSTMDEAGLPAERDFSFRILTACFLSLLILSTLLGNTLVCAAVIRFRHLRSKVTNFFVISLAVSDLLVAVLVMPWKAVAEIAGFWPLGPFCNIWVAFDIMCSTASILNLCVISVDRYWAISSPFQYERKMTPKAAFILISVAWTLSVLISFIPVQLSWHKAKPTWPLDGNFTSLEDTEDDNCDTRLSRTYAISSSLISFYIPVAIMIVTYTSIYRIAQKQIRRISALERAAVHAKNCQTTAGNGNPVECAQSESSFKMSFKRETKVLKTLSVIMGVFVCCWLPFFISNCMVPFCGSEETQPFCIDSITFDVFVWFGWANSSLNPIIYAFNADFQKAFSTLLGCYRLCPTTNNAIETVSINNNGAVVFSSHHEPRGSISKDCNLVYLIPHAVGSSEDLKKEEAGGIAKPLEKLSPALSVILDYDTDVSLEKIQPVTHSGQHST
conditionDescription: read-out: D-1 Ki; rat caudate, [125I]SCH-23982
Structures can show the parent of a compound that is named as a salt.
Provide the recorded Ki for the entries that follow.
Param answer (str): number followed by unit.

See these solved cases before continuing.
molecule="CCCNCC1=CC(c2ccccc2)Cc2c1ccc(O)c2O (stereo not shown) [Example 151]" recordedendpoint=Ki testresult="5800 nM"
molecule="CCNCC1=CC(c2ccccc2)Cc2c1ccc(O)c2O (stereo not shown) [Example 153]" recordedendpoint=Ki testresult="850 nM"
molecule="CCC1Cc2c(ccc(O)c2O)C(CN)O1 (stereo not shown) [Example 67]" recordedendpoint=Ki testresult="1900 nM"
molecule="CN1CCC2=C(C1)c1ccc(O)c(O)c1CC2c1ccccc1 (stereo not shown) [Example 247]" recordedendpoint=Ki testresult="20 nM"
molecule="Oc1ccc2c(c1O)C[C@H](c1ccccc1)C[C@H]2[C@H]1CCCN1 (relative stereo) [Example 181, Hydrobromide]" recordedendpoint=Ki testresult="390 nM"

Give measured Ki for every item shown.
1. CCCN(CCC)CC1=CC(c2ccccc2)Cc2c1ccc(O)c2O (stereo not shown) [Example 152]
2. CCCCCC(NC(C)=O)[C@@H]1Cc2c(ccc(O)c2O)[C@H](CN)O1 (relative stereo) [Example 163]
3. NCC1c2ccc(O)c(O)c2CC(c2ccccc2)C1CCO (stereo not shown) [Example 45, Formic Acid Salt]
4. C=CCNC[C@@H]1O[C@H](c2ccccc2)Cc2c1ccc(O)c2O (stereo in doubt) [Example 130]
5. C[C@H](N)C1OC(c2ccccc2)Cc2c1ccc(O)c2O (stereo partly shown) [Example 108]
6. NC[C@@H]1C[C@H](C23CC4CC(CC(C4)C2)C3)Cc2c1ccc(O)c2O (relative stereo) [Example 235]

Reply:
["59000 nM", "790 nM", "4600 nM", "51 nM", "4100 nM", "550 nM"]
